Reference for the values: the supplement of paper PMC10307832

# System: LCLC-97TM1
# assay comment: relative viability (nuclei count vs DMSO), 5 days (fraction); higher = more cells survive
# condition set: first compound 1 µM
Recorded relative viability, one value per entry.
recorded endpoint: relative viability

INSERT INTO assay_data (compound, recorded_endpoint, measured_result) VALUES
  ('NC(=O)Nc1cc(-c2cccc(F)c2)sc1C(=O)N[C@H]1CCCNC1 [AZD7762] + CC(=O)c1c(C)c2cnc(Nc3ccc(N4CCNCC4)cn3)nc2n(C2CCCC2)c1=O [Palbociclib] (partner 0.5 µM)', 'relative viability', 0.274),
  ('NC(=O)Nc1cc(-c2cccc(F)c2)sc1C(=O)N[C@H]1CCCNC1 [AZD7762] + COc1cc2c(Oc3ccc(NC(=O)C4(C(=O)Nc5ccc(F)cc5)CC4)cc3F)ccnc2cc1OCCCN1CCOCC1 [Foretinib] (partner 0.25 µM)', 'relative viability', 0.948),
  ('NC(=O)Nc1cc(-c2cccc(F)c2)sc1C(=O)N[C@H]1CCCNC1 [AZD7762] + CS(=O)(=O)N1CCN(Cc2cc3nc(-c4cccc5[nH]ncc45)nc(N4CCOCC4)c3s2)CC1 [Pictilisib] (partner 1 µM)', 'relative viability', 0.152),
  ('NC(=O)Nc1cc(-c2cccc(F)c2)sc1C(=O)N[C@H]1CCCNC1 [AZD7762] + CC1(C)CCC(c2ccc(Cl)cc2)=C(CN2CCN(c3ccc(C(=O)NS(=O)(=O)c4ccc(N[C@H](CCN5CCOCC5)CSc5ccccc5)c(S(=O)(=O)C(F)(F)F)c4)cc3)CC2)C1 [Navitoclax] (partner 0.5 µM)', 'relative viability', 0.237),
  ('NC(=O)Nc1cc(-c2cccc(F)c2)sc1C(=O)N[C@H]1CCCNC1 [AZD7762] + Cc1nc(Nc2ncc(C(=O)Nc3c(C)cccc3Cl)s2)cc(N2CCN(CCO)CC2)n1 [Dasatinib] (partner 0.075 µM)', 'relative viability', 0.447),
  ('NC(=O)Nc1cc(-c2cccc(F)c2)sc1C(=O)N[C@H]1CCCNC1 [AZD7762] + C[C@]1(O)C[C@@H](c2nc(-c3ccc4ccc(-c5ccccc5)nc4c3)c3c(N)nccn32)C1 [Linsitinib] (partner 1 µM)', 'relative viability', 0.189),
  ('NC(=O)Nc1cc(-c2cccc(F)c2)sc1C(=O)N[C@H]1CCCNC1 [AZD7762] + N=C(N)NC(=N)NCCc1ccccc1 [Phenformin] (partner 250 µM)', 'relative viability', 0.433);

====

# Test system: NCI-H1944
# assay comment: relative viability (nuclei count vs DMSO), 5 days (fraction); higher = more cells survive
# condition set: first compound 0.08 µM
recorded endpoint: relative viability

INSERT INTO assay_data (compound, assayed_target, recorded_endpoint, measured_result) VALUES
  ('Oc1nc(-c2ccc(C(F)(F)F)cc2)nc2c1CSCC2 [XAV939] + CC1(C)CCC(c2ccc(Cl)cc2)=C(CN2CCN(c3ccc(C(=O)NS(=O)(=O)c4ccc(N[C@H](CCN5CCOCC5)CSc5ccccc5)c(S(=O)(=O)C(F)(F)F)c4)cc3)CC2)C1 [Navitoclax] (partner 0.5 µM)', 'NCI-H1944', 'relative viability', 1.07),
  ('C=C1C(=O)O[C@@H](CCCCCCCC)[C@@H]1C(=O)O [C-75] + C[C@@H](Oc1cc(-c2cnn(C3CCNCC3)c2)cnc1N)c1c(Cl)ccc(F)c1Cl [Crizotinib] (partner 1 µM)', 'NCI-H1944', 'relative viability', 1.06),
  ('Oc1nc(-c2ccc(C(F)(F)F)cc2)nc2c1CSCC2 [XAV939] + C[C@]1(O)C[C@@H](c2nc(-c3ccc4ccc(-c5ccccc5)nc4c3)c3c(N)nccn32)C1 [Linsitinib] (partner 1 µM)', 'NCI-H1944', 'relative viability', 1.22);
